Listing: pIC50 of selected compounds
# tgt: Aurora kinase B (Homo sapiens)
# Sequence (Q96GD4 whole entry): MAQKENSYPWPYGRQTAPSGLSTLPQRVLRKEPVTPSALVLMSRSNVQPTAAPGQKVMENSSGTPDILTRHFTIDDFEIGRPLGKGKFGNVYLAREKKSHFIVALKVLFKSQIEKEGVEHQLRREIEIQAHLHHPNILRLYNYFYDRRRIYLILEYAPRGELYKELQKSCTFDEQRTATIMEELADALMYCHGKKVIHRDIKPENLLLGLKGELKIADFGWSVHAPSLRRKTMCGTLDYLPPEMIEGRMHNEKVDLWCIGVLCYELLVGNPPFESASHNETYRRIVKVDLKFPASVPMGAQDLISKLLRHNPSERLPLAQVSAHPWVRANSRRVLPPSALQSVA
pIC50: −log10 of the molar value.
quantity.kind: pIC50

>>> observed("Cc1cn2c(-c3cn[nH]c3)cnc2c(Nc2ccc(C(=O)N3CCNCC3)c(C3CC3)c2)n1")
6.89
>>> observed("O=C(c1ccc(Nc2nc(C3CC3)cn3c(-c4cn[nH]c4)cnc23)cc1Cl)N1CCNCC12CC2")
5.52
>>> observed("Cc1cn2c(-c3cn[nH]c3)cnc2c(Nc2ccc(C(=O)N3CCNC(C)(C)C3)c(Cl)c2)n1")
6.52

====

// IC50 collected for Tyrosine-protein kinase Lck (Homo sapiens, UniProt P06239)
quantity.kind: IC50

>>> observed("Cc1cn2c(-c3cn[nH]c3)cnc2c(Nc2ccc(C(=O)N3CCNCC3)cc2F)n1")
"> 20 µM"
>>> observed("O=C(c1ccc(Nc2nc(C3CC3)cn3c(-c4cn[nH]c4)cnc23)c(Cl)c1)N1CCOCC1")
"> 20 µM"
>>> observed("Cc1cn2c(-c3cn[nH]c3)cnc2c(Nc2ccc(C(=O)N3CCNCC3(C)C)cc2F)n1")
"> 20 µM"

====

# tgt: Protein-tyrosine kinase 6 (Homo sapiens)
# experiment.notes: Inhibition of phosphorylation of SAM68 in 293 WT-PTK6 cells after 3 hrs
# Type: functional, cell-based
// thresholds for IC50 classes: Low = under 30 nM, Mid = from 30 nM up to 100 nM, High = 100 nM and over

>>> group("Cc1cn2c(-c3cn[nH]c3)cnc2c(Nc2ccc(C(=O)N3CCN(C)CC3)c(Cl)c2)n1")
"High"
>>> group("Cc1cn2c(-c3cn[nH]c3)cnc2c(Nc2ccc(C(=O)N3CCNCC3)cc2)n1")
"High"
>>> group("Cc1cn2c(-c3cn[nH]c3)cnc2c(Nc2ccc(C(=O)N3CCNC(C)(C)C3)cc2F)n1")
"Mid"
>>> group("O=C(c1ccc(Nc2nc(C3CC3)cn3c(-c4cn[nH]c4)cnc23)cc1Cl)N1CCNCC12CC2")
"Low"
>>> group("Cc1cn2c(-c3cn[nH]c3)cnc2c(Nc2ccc(C(=O)N3CCNC(C)(C)C3)c(Cl)c2)n1")
"Low"
>>> group("O=C(c1ccc(Nc2nc(C3CC3)cn3c(-c4cn[nH]c4)cnc23)cc1Cl)N1C[C@H]2CC[C@@H]1CN2")
"Mid"
>>> group("Cc1cn2c(-c3cn[nH]c3)cnc2c(Nc2cc(CN3CCCCC3)ns2)n1")
"Mid"
>>> group("O=C(c1ccc(Nc2nc(C3CC3)cn3c(-c4cn[nH]c4)cnc23)cc1Cl)N1CCNC2(CC2)C1")
"Mid"
>>> group("Cc1cn2c(-c3cn[nH]c3)cnc2c(Nc2ccc(C(=O)N3CCNC(=O)C3)c(Cl)c2)n1")
"High"
>>> group("Cc1cn2c(-c3cn[nH]c3)cnc2c(Nc2ccc(C(=O)N3CCOCC3)c(Cl)c2)n1")
"High"
>>> group("COc1cc(Nc2nc(C)cn3c(-c4cn[nH]c4)cnc23)ccc1C(=O)N1CCNCC1")
"Low"
>>> group("Cc1cn2c(-c3cn[nH]c3)cnc2c(Nc2ccc(C(=O)N3CCNCC3)c(Cl)c2)n1")
"High"
>>> group("O=C(c1ccc(Nc2nc(C3CC3)cn3c(-c4cn[nH]c4)cnc23)c(F)c1)N1CCOCC1")
"Mid"
>>> group("COC1CCN(C(=O)c2ccc(Nc3nc(C)cn4c(-c5cn[nH]c5)cnc34)cc2Cl)CC1")
"High"

====

# tgt: Protein-tyrosine kinase 6 (Homo sapiens, UniProt Q13882)
# Sequence (Q13882 whole entry): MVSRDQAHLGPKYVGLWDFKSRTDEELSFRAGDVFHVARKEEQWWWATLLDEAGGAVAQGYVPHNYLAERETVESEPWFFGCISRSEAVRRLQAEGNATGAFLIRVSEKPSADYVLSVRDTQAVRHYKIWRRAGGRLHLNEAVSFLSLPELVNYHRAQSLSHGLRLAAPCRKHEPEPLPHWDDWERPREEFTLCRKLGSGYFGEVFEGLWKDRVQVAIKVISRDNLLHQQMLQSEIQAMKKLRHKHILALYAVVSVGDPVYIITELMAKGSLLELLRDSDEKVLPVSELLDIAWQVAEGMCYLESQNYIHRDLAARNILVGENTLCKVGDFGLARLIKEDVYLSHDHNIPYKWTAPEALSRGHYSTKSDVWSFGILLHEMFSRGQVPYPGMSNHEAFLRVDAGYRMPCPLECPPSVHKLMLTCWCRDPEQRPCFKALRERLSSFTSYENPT
# experiment.notes: Inhibition of BRK pretreated for 30 mins by microplate reader
pIC50: −log10 of the molar value.
quantity.kind: pIC50

>>> observed("O=C(c1ccc(Nc2nc(C3CC3)cn3c(-c4cn[nH]c4)cnc23)c(F)c1)N1CCNCC1")
8.52
>>> observed("CC(C)c1cn2c(-c3cn[nH]c3)cnc2c(Nc2ccc(C(=O)N3CCNCC3)c(Cl)c2)n1")
6.32
>>> observed("Cc1cn2c(-c3cn[nH]c3)cnc2c(Nc2ccc(C(=O)N3CCNC(=O)C3)c(Cl)c2)n1")
8.52
>>> observed("O=C(c1ccc(Nc2nc(C3CC3)cn3c(-c4cn[nH]c4)cnc23)cc1Cl)N1CCNCC12CC2")
8.00
>>> observed("CC(=O)N1CCN(C(=O)c2ccc(Nc3nc(C)cn4c(-c5cn[nH]c5)cnc34)cc2Cl)CC1")
7.80
>>> observed("CC1(C)CN(C(=O)c2ccc(Nc3nc(C4CC4)cn4c(-c5cn[nH]c5)cnc34)c(F)c2)CCN1")
8.22
>>> observed("Cc1cn2c(-c3cn[nH]c3)cnc2c(Nc2ccc(C(=O)N3CCNCC3)c(C3CC3)c2)n1")
7.42
>>> observed("Cc1cn2c(-c3cn[nH]c3)cnc2c(Nc2ccc(N3CCOCC3)nc2)n1")
6.31
>>> observed("COC1CCN(C(=O)c2ccc(Nc3nc(C)cn4c(-c5cn[nH]c5)cnc34)cc2Cl)CC1")
7.22
>>> observed("O=C(c1ccc(Nc2nc(C3CC3)cn3c(-c4cn[nH]c4)cnc23)cc1Cl)N1C[C@H]2CC[C@@H]1CN2")
8.30
>>> observed("CC1(C)CNCCN1C(=O)c1ccc(Nc2nc(C3CC3)cn3c(-c4cn[nH]c4)cnc23)cc1Cl")
8.70
>>> observed("Cc1cn2c(-c3cn[nH]c3)cnc2c(N[C@H]2CC[C@H](C(=O)N3CCNCC3)CC2)n1")
6.10
>>> observed("COc1cc(Nc2nc(C)cn3c(-c4cn[nH]c4)cnc23)ccc1C(=O)N1CCNCC1")
7.64
>>> observed("Cc1cn2c(-c3cn[nH]c3)cnc2c(Nc2ccc(C(=O)N3CCNCC3)cc2)n1")
7.82
>>> observed("Cc1cn2c(-c3cn[nH]c3)cnc2c(Nc2cncc(N3CCNCC3)c2)n1")
7.12
>>> observed("Cc1cn2c(-c3cn[nH]c3)cnc2c(Nc2ccc(C(=O)N3CCNC4(CC4)C3)c(Cl)c2)n1")
7.72
>>> observed("CC1(C)CNCCN1C(=O)c1ccc(Nc2nc(C3CC3)cn3c(-c4cn[nH]c4)cnc23)c(F)c1")
8.52
>>> observed("Cc1cn2c(-c3cn[nH]c3)cnc2c(Nc2ccc(C(=O)N3CCCCC3)c(Cl)c2)n1")
7.03
>>> observed("O=C(c1ccc(Nc2nc(C3CC3)cn3c(-c4cn[nH]c4)cnc23)cc1Cl)N1CCOCC1")
6.91
>>> observed("Cc1cn2c(-c3cn[nH]c3)cnc2c(Nc2cc(C(=O)N(C)C)ns2)n1")
7.92
>>> observed("O=C(c1ccc(Nc2nc(C3CC3)cn3c(-c4cn[nH]c4)cnc23)cc1Cl)N1CCNCC1")
8.22
>>> observed("O=C(c1ccc(Nc2nc(C3CC3)cn3c(-c4cn[nH]c4)cnc23)c(Cl)c1)N1CCNCC1")
7.20
>>> observed("Cc1cn2c(-c3cn[nH]c3)cnc2c(Nc2ccc(C(=O)N3CCNC(C)(C)C3)c(Cl)c2)n1")
7.74

====

pIC50: −log10 of the molar value.
Here's what we have: pIC50 numbers for Tyrosine-protein kinase Lck (Homo sapiens, UniProt P06239).
quantity.kind: pIC50

>>> observed("O=C(c1ccc(Nc2nc(C3CC3)cn3c(-c4cn[nH]c4)cnc23)c(F)c1)N1CCOCC1")
"< 4.70"
>>> observed("O=C(c1ccc(Nc2nc(C3CC3)cn3c(-c4cn[nH]c4)cnc23)c(F)c1)N1CCNCC1")
"< 4.70"
>>> observed("Cc1cn2c(-c3cn[nH]c3)cnc2c(Nc2ccc(C(=O)N3CCNCC3)cc2Cl)n1")
"< 4.70"

====

Form: system (UniProtKB Q96GD4), quantity (IC50), values below.
quantity.kind: IC50

>>> observed("Cc1cn2c(-c3cn[nH]c3)cnc2c(Nc2ccc(C(=O)N3CCNC(C)(C)C3)cc2F)n1")
"> 20 µM"
>>> observed("O=C(c1ccc(Nc2nc(C3CC3)cn3c(-c4cn[nH]c4)cnc23)c(Cl)c1)N1CCNCC1")
"> 20 µM"
>>> observed("Cc1cn2c(-c3cn[nH]c3)cnc2c(Nc2cc(CN3CCCCC3)ns2)n1")
"< 0.013 µM"
>>> observed("CC1(C)CNCCN1C(=O)c1ccc(Nc2nc(C3CC3)cn3c(-c4cn[nH]c4)cnc23)c(F)c1")
"> 20 µM"

====

# tgt: Protein-tyrosine kinase 6 (Homo sapiens)
# experiment.notes: Inhibition of BRK pretreated for 30 mins by microplate reader
Entries and their IC50
quantity.kind: IC50

>>> observed("Cc1cn2c(-c3cn[nH]c3)c(C(C)C)nc2c(Nc2ccc(C(=O)N3CCNCC3)c(Cl)c2)n1")
"> 10 µM"
>>> observed("CCc1nc2c(Nc3ccc(C(=O)N4CCNCC4)c(Cl)c3)nc(C)cn2c1-c1cn[nH]c1")
"> 10 µM"
>>> observed("Cc1cn2c(-c3cn[nH]c3)c(C3CC3)nc2c(Nc2ccc(C(=O)N3CCNCC3)c(Cl)c2)n1")
"> 10 µM"
